Attribution: patent US20140128352A1

- system: flavin binding site of complex I (IF) (Rattus norvegicus)
- Construct: freshly isolated muscle mitochondria were assayed; from tissue; host or cells: rat skeletal muscle mitochondria (Wistar, Harlan Laboratories)
- Sequence (Q5XIH3 21-464 limits assumed, one chain of several): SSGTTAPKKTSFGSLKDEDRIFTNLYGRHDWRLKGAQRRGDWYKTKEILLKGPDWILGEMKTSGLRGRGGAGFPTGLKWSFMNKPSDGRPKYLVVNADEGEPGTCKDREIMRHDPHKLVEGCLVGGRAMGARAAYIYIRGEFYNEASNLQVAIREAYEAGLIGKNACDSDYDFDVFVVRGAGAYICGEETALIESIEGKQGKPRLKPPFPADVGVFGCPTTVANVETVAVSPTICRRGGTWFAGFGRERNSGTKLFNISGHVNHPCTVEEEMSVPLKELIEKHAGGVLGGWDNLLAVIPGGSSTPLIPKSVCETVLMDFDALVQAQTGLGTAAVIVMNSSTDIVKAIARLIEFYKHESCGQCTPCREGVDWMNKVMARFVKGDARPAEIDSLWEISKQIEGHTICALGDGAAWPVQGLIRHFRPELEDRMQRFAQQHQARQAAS
- procedure.details: High-throughput screen: ROS production from flavin binding site of complex I (IF)
- Type: biochemical
- condition.context: Table 8; percent change in ROS from DMSO controls
measured.property: IF
Just the number.

>  <compound>
O=C(Nc1ccccc1C(=O)O)c1ccccc1 [Compound 18]

>  <endpoint.result>
−25.8

$$$$
>  <compound>
CC1CC(C)(C)N(C=O)c2ccccc21 (centres unmarked) [Compound 71]

>  <endpoint.result>
7.0

$$$$
>  <compound>
COc1ccc(-c2ccccc2)cc1NCC1=CC[C@H]2C[C@@H]1C2(C)C [Compound 41]

>  <endpoint.result>
6.6

$$$$

Tell me the measured IF of CCCN(CCO)Cc1ccc2c(c1)c1ccccc1n2CC [Compound 15] , please.
−27.6

Tell me the measured IF of O=[N+]([O-])c1ccc(Oc2ccc(S(=O)(=O)NC3CCCCC3)cc2)cc1 [Compound 4] , please.
3.1
